These measurements were taken from ChEMBL document CHEMBL5532762.

test system: MDA-MB-231; assay: Antiproliferative activity against human MDA-MB-231 cells assessed as reduction in cell growth incubated for 24 hrs by MTT assay; conditions: MDA-MB-231, 24 h
property: pIC50
pIC50 here is simply -log10 of the concentration when that concentration is written in mol/L.

Lookup: State the recorded pIC50 for this entry: "CCC(=C(c1ccc(O)cc1)c1ccc(OCCN(C)C(=O)/C(=C/c2ccc(OC)c(O)c2)c2cc(OC)c(OC)c(OC)c2)cc1)c1ccc(O)cc1"
Found: 5.61

----------
assay: Aqueous solubility of the compound; format: physicochemical; settings: water (aqueous)
property: solubility

smiles_entry=COc1cc(COc2ccc(/C(=C(\C)c3ccccc3)c3ccc(OCCN(C)C)cc3)cc2)c([N+](=O)[O-])cc1OCC(=O)NCCN property=solubility result="≥ 20 µg/mL"

Lookup: Look up solubility for this compound: "CC/C(=C(/c1ccc(OCCN(C)C)cc1)c1ccc(OC(=O)N(C)CCN(C)C(=O)OCc2cc(OC)c(OCC(=O)NCCN)cc2[N+](=O)[O-])cc1)c1ccccc1"
Found: ≥ 20 µg/mL
